Values from patent US20230118024A1

Molecular target: T1, HLA-DQ2.5/alpha 1 gliadin peptide complex on Ba/F3 cells (human; wheat)
T1 construct: also called Ba/F3-HLA-DQ2.5/alpha 1 gliadin peptide
Assay: FACS
measurement type: FIG. 30 FACS value (IC17=0, DQN0139bb=100)
Could you keep your reply to the number by itself?

Example entries begin here.
DQN0356bb (antibody, human IgG1, kappa, V domains shown, also called DQN0356Hb; DQN0356Lb) VH: QEQLVESGGGLVKPEGSLTLTCTASGFSFSSDYSVCWVRQAPGKGLEWIGCIYTGSDITYYASWAKGRFTISKTSSTTVTLQMTSLTAADTATWFCARSWNGYGGYADLWGPGTLVTVSS VL: AYDMAQTPASVEVAVGGTVTIKCQASQSIDNYLAWYQQKPGQPPKLLIYWASTLASGVSSRFKGSGSGTQFSLTISDLECADAATYYCQQYYSNSNVVNTFGGGTKVEIKR :: 94.9
DQN0303hh (antibody, human IgG1, kappa, V domains shown, also called DQN0303Lh) VH: QQHLEESGGGLVKPGGTLTLTCTASGIDFSSYYYMCWVRQAPGKGLEWIACIYTGDGSTYYASWVNGRFTISRSTSLNTVTLQLNGLAAADTATYFCARSYGASSAIGYFNLWGPGTLVTVSS VL: DVVMTQTPSSKSAAVGGTVTIKCQASQNIYSNLAWYQQKPGQRPKLLIYEASTLASGVPSRFRGSGSGTEFTLTISDLECDDAATYYCQNYYYTSSNDFYTFGGGTKVEIKR :: 51.4

API: the following record is the query input.
Problem: Need FIG. 30 FACS value (IC17=0, DQN0139bb=100) of DQN0223hh (antibody, human IgG1, kappa, V domains shown, also called DQN0223Lh) VH: QQQLEESGGGLVKPGGTLTLTCKASRIDFSTYYYICWVRQSPWKGLEWIACIYSGDGYTYYPSWAKGRFSISKTSSTTVTLQVTSLTAADTATYFCARSYGGSSASAYFTLWGPGTQVTVSS VL: AVVLTQTASPVSAPVGGTVTIKCQASQSIGSNLGWYQQKPGQPPKLLIYGASALASGVPSRFKGSGSGTQFTLTINDLECADAATYYCQGYYYSSSAEWHSFGGGTKVEIKR , thanks.
Solution: 27.9
